Conditions: 298.15 K; 101.33 kPa; Liquid; Vibrating tube method
Label Condition met when mass density >= 1000 kg/m3; otherwise Condition not met.

Look over these answered cases.
>>> answerlabel("CCCCCC [hexane]")
"Condition not met"
>>> answerlabel("CCOP(=O)([O-])OCC.CCn1cc[n+](C)c1 [1-ethyl-3-methylimidazolium diethyl phosphate]")
"Condition met"
>>> answerlabel("Cc1ccccc1 [toluene]")
"Condition not met"
>>> answerlabel("c1ccsc1 [thiophene]")
"Condition met"

Please turn your attention to the following entry.
Could you verify whether the entry CC(=O)[O-].CCn1cc[n+](C)c1 [1-ethyl-3-methylimidazolium acetate] shows mass density of no less than 1000 kg/m3?
Condition met

###

Listing of recorded refractive index by entry.
Test: refractive index (Na D-line) (dimensionless)
Settings: 298.15 K; 101.33 kPa; Liquid; Standard Abbe refractometry
Numbers after ± are expanded uncertainties.

>>> testvalue("CCCCCC")
"1.37236 ± 0.00037"
>>> testvalue("CCOP(=O)([O-])OCC.CCn1cc[n+](C)c1 [1-ethyl-3-methylimidazolium diethyl phosphate]")
"1.47304 ± 0.001"
>>> testvalue("Cc1ccccc1")
"1.49367 ± 0.00033"

Let me know recorded refractive index for CC(=O)[O-].CCn1cc[n+](C)c1 [1-ethyl-3-methylimidazolium acetate] , thanks.
1.50069 ± 0.001

Let me know recorded refractive index for `c1ccncc1` , thanks.
1.50636 ± 0.00033

Let me know recorded refractive index for `c1ccsc1` , thanks.
1.52523 ± 0.00033
